# Test system: CAKI-1 renal
# methodSummary: NCI-60 one-dose screen, 48 h
# measurementConditions: 10 µM
This is part of a sample that, as a whole, favours compounds with a hit. Of some 83,000 tested, about 20% had one in any assay. Activity calls are given as the source filed them. Rule for the calls: active = growth percent below 10; inactive = the rest.
Possible outcomes: active, inactive

{"compound": "CC(C)C[C@H](NC(=O)Cn1ccc2ccccc2c1=O)B(O)O", "measurementTarget": "CAKI-1 renal", "assignedClass": "inactive"}
{"compound": "COc1ccccc1S(=O)(=O)Nc1ccc2c(c1)CN(C)C(=O)N2", "measurementTarget": "CAKI-1 renal", "assignedClass": "inactive"}
{"compound": "FC(F)(F)c1ccc(-c2ncc(-c3ccc(C(F)(F)F)cc3)c(NCc3cc(C(F)(F)F)cc(C(F)(F)F)c3)n2)cc1", "measurementTarget": "CAKI-1 renal", "assignedClass": "inactive"}
{"compound": "CCCCCCCCCCCCCCCCCBr", "measurementTarget": "CAKI-1 renal", "assignedClass": "inactive"}
{"compound": "O=C(/C=C/c1nnc2n(Cc3ccccc3)c(=O)c3c4c(sc3n12)CCCC4)c1ccccc1", "measurementTarget": "CAKI-1 renal", "assignedClass": "inactive"}
{"compound": "CC(C)OP(=O)(O)c1ncc(-c2ccc(C(F)(F)F)cc2)c(NC2CCCCCC2)n1", "measurementTarget": "CAKI-1 renal", "assignedClass": "inactive"}
{"compound": "CCCCCN(CCCCC)C(C)C(O)c1ccc2cc(Cl)c3ccccc3c2c1 (stereo not given)", "measurementTarget": "CAKI-1 renal", "assignedClass": "inactive"}
{"compound": "COc1ccc(N2CCN(c3nc(-c4ccccc4)c(C#N)c(=O)[nH]3)CC2)cc1", "measurementTarget": "CAKI-1 renal", "assignedClass": "inactive"}
{"compound": "CC(=O)OCC(COC(C)=O)(COC(C)=O)COC(C)=O", "measurementTarget": "CAKI-1 renal", "assignedClass": "inactive"}
{"compound": "Nc1c(C(=O)Nc2ccccc2F)sc2nc3c(cc12)C(=O)CCC3", "measurementTarget": "CAKI-1 renal", "assignedClass": "active"}

====

# Test system: A498 renal
# methodSummary: NCI-60 one-dose screen, 48 h (100 = growth as untreated, 0 = no growth, -100 = all killed)
# measurementConditions: 10 µM
This is part of a sample that, as a whole, favours compounds with a hit. Of some 83,000 tested, about 20% had one in any assay.
// classify(record): look up growth in ranges low bracket: < 60%; middle bracket: ≥ 60% and < 90%; high bracket: ≥ 90%

{"molecule": "COc1cc(N=C2C(=O)N(Cc3ccccc3)c3ccccc32)cc(OC)c1OC", "assignedClass": "high bracket"}
{"molecule": "Cc1ccc2oc(=O)cc(/C(=C3/C=CC=N3)c3ccc[nH]3)c2c1", "assignedClass": "low bracket"}
{"molecule": "CCN(CCCNC(=O)Cc1cc(=O)oc2cc(N(C)C)ccc12)CCNc1ccnc2cc(Cl)ccc12", "assignedClass": "middle bracket"}
{"molecule": "COC(=O)C1(C(=O)OC)C2C(=O)C3C(C21)C3(C(=O)OC(C)(C)C)C(=O)OC(C)(C)C (centres undefined)", "assignedClass": "high bracket"}
{"molecule": "O=c1ccc2nc(-c3ccccc3)nn(-c3ccccc3)c-2c1", "assignedClass": "middle bracket"}
{"molecule": "COC(=O)c1cnc2c(c1)Oc1ccc(Cl)cc1-c1cc(C)nn1-2", "assignedClass": "high bracket"}
{"molecule": "COc1ccc(-c2n/c(=C\\c3c(O)[nH]c4ccccc34)cc3c2=Nc2ccccc2-3)cc1", "assignedClass": "low bracket"}
{"molecule": "O=C/C=C/c1ccc([N+](=O)[O-])cc1Cl", "assignedClass": "high bracket"}
{"molecule": "CNC(=O)c1cc(Oc2ccc(NC(=O)Nc3ccc(Cl)c(OC(C)C)c3)c(F)c2)ccn1", "assignedClass": "low bracket"}
{"molecule": "CCCCOCC(=O)NC(NP(=O)(N(C)C)N(C)C)C(Cl)(Cl)Cl (centres undefined)", "assignedClass": "high bracket"}
{"molecule": "CCOC(=O)c1c(Cl)c2c(n1Cc1cccc(OC)c1)-c1oncc1CC2", "assignedClass": "low bracket"}
{"molecule": "Cc1cccc2c(Nc3ccc(NS(C)(=O)=O)cc3)c3ccc([N+](=O)[O-])cc3nc12", "assignedClass": "low bracket"}
{"molecule": "CCSc1nc2c([nH]1)c(=O)n(C)c(=S)n2C", "assignedClass": "high bracket"}
{"molecule": "N=C(N)c1ccc(-c2ccc(-c3cccs3)s2)nc1", "assignedClass": "low bracket"}
{"molecule": "CCN(CC)CC(O)Cc1ccc(OC)cc1 (centres undefined)", "assignedClass": "high bracket"}
{"molecule": "Cc1ccc(NS(=O)(=O)c2ccccc2)c(NS(=O)(=O)c2ccccc2)c1", "assignedClass": "high bracket"}
{"molecule": "COc1cc(/C=C/C(=O)c2cc(-c3ccccc3)ccc2O)cc(OC)c1OC", "assignedClass": "middle bracket"}
{"molecule": "O=C(NCCCl)c1cc(Cl)cc(Cl)c1", "assignedClass": "middle bracket"}
{"molecule": "CCCCCCCCCCN=C(c1ccc(N(C)C)cc1)c1ccc(N(C)C)cc1", "assignedClass": "low bracket"}
{"molecule": "COc1cc(Nc2ccnc(N3CCN(c4ccnc5cc(Cl)ccc45)CC3)n2)cc(OC)c1", "assignedClass": "low bracket"}
{"molecule": "N#CN1CC[C@H](C(=O)Nc2ncc(-c3ccccc3)s2)C1", "assignedClass": "low bracket"}
{"molecule": "CC(=O)O[C@H]1CC[C@@]2(C)[C@@H](CC[C@@H]3[C@@H]2CC[C@]2(C)C=C(C=O)C[C@@H]32)C1", "assignedClass": "high bracket"}
{"molecule": "O=S(=O)(NCCO)c1ccc(OCCOc2ccc(S(=O)(=O)NCCO)cc2)cc1", "assignedClass": "middle bracket"}
{"molecule": "Nc1ccccc1NC(=O)CCCCCCC(=O)Nc1ccc2c(c1)/C(=C/c1ccc[nH]1)C(=O)N2", "assignedClass": "low bracket"}
{"molecule": "CCOc1ccc(-n2cc(-c3ccc(N(C)C)cc3)[n+]3c2CCCCC3)cc1", "assignedClass": "low bracket"}
{"molecule": "NC(=O)C1CCCN(Cc2c[nH]c3ccccc23)C1 (centres undefined)", "assignedClass": "middle bracket"}
{"molecule": "S=c1c2ncccc2c(-c2ccccn2)nn1Cc1ccccn1", "assignedClass": "high bracket"}
{"molecule": "Cc1cc(=O)oc2cc(OCc3cn(CC(O)CO)nn3)ccc12 (centres undefined)", "assignedClass": "low bracket"}
{"molecule": "Cn1c([N+](=O)[O-])cnc1C=C1C(=O)c2ccccc2C1=O", "assignedClass": "middle bracket"}
{"molecule": "COc1ccc(-c2cn[nH]c2-c2cc(OC)c(OC)c(OC)c2)cc1", "assignedClass": "low bracket"}
{"molecule": "CN(C)c1ccc2c(c1)OC(N)=C(C#N)C2c1ccc2c(c1)CCO2 (centres undefined)", "assignedClass": "low bracket"}
{"molecule": "CCCCCCCCCCCCCC[n+]1ccccc1", "assignedClass": "low bracket"}
{"molecule": "O=C(NNC(=O)c1ccncc1)Nc1ccc([N+](=O)[O-])cc1", "assignedClass": "high bracket"}
{"molecule": "CCCCn1c(=O)[nH]c2c(c1=O)C(c1ccc(Cl)cc1)c1c([nH]c(=O)n(CCCC)c1=O)N2", "assignedClass": "high bracket"}
{"molecule": "COc1cccc2c1O/C(=C\\c1ccc([N+](=O)[O-])s1)C2=O", "assignedClass": "high bracket"}

====

# Tested on: HS 578T breast
# methodSummary: NCI-60 one-dose screen, 48 h (100 = growth as untreated, 0 = no growth, -100 = all killed)
# measurementConditions: 10 µM
The panel holds about 83,000 compounds, 20% with a hit somewhere; the sample as a whole holds those more often.
Reported growth values are given for each entry in this list.
propertyLabel: growth (%)

{"smilesText": "CCCCNC(=O)Oc1ccc(/C(=C(\\C)c2ccc(OC)cc2)c2ccc(OCCN3CCCCC3)cc2)cc1", "measurementTarget": "HS 578T breast", "propertyLabel": "growth", "measurementUnit": "%", "numericValue": 48.5}
{"smilesText": "O=[N+]([O-])c1ccc(S(=O)(=O)OCCCCOS(=O)(=O)c2ccc([N+](=O)[O-])cc2)cc1", "measurementTarget": "HS 578T breast", "propertyLabel": "growth", "measurementUnit": "%", "numericValue": 105}
{"smilesText": "COc1ccc(-c2cc(=O)n(-c3nc4ccccc4[nH]3)[nH]2)cc1OC", "measurementTarget": "HS 578T breast", "propertyLabel": "growth", "measurementUnit": "%", "numericValue": 48.2}
{"smilesText": "C=CCNCCCN1C(=O)c2ccc3c4c(ccc(c24)C1=O)C(=O)N(CCCNCC=C)C3=O", "measurementTarget": "HS 578T breast", "propertyLabel": "growth", "measurementUnit": "%", "numericValue": -41.3}
{"smilesText": "COc1ccc(-c2oncc2-c2cc(OC)c3c(c2)OCO3)cc1", "measurementTarget": "HS 578T breast", "propertyLabel": "growth", "measurementUnit": "%", "numericValue": 4.09}
{"smilesText": "Cc1ccc(S(=O)(=O)Oc2ccccc2-c2ccccc2)cc1", "measurementTarget": "HS 578T breast", "propertyLabel": "growth", "measurementUnit": "%", "numericValue": -21.5}
{"smilesText": "Cc1ccc(NC(=O)/C=N/O)cc1C", "measurementTarget": "HS 578T breast", "propertyLabel": "growth", "measurementUnit": "%", "numericValue": 95.7}
{"smilesText": "COc1cccc(C(=O)NNc2nc(N3CCN(C4CCCCC4)CC3)nc(N3CCN(C(c4ccccc4)c4ccccc4)CC3)n2)c1", "measurementTarget": "HS 578T breast", "propertyLabel": "growth", "measurementUnit": "%", "numericValue": 74.2}
{"smilesText": "CCCCn1c(=O)[nH]c(N)c(C(c2ccc(Cl)cc2)c2c(N)[nH]c(=O)n(CCCC)c2=O)c1=O", "measurementTarget": "HS 578T breast", "propertyLabel": "growth", "measurementUnit": "%", "numericValue": 50.6}
{"smilesText": "Oc1cc(O)c(Br)cc1Br", "measurementTarget": "HS 578T breast", "propertyLabel": "growth", "measurementUnit": "%", "numericValue": 107}
